tested_target: Neuropeptide Y receptor type 2 (Homo sapiens) (UniProt P49146)
Sequence (P49146 whole entry, looked up): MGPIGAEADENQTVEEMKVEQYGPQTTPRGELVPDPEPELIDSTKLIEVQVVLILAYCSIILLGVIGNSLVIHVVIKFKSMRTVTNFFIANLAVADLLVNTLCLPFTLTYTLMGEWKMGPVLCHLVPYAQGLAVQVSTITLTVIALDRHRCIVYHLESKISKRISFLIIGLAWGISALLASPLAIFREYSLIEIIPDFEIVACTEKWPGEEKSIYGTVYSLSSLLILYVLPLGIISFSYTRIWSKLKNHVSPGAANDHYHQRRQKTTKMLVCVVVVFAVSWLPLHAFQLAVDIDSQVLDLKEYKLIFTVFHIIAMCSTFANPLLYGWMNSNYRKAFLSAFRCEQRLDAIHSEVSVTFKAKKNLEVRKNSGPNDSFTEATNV
measurement_protocol: blockers of human neuropeptide Y Y2 receptor – cell-based, primary screen (AID 793);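 further: 0% = vehicle with agonist challenge and 100% = reference antagonist with challenge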
test_parameters: NPY-Y2 expressing cells, antagonist mode; at 2.7 µM
The campaign covered roughly 140,000 compounds. About 1,400 (1%) were called active. No stated cut-off is given here; in the data, active means inhibition above about 17%; inactive means the rest. The sample as a whole holds a higher share of actives than the screen did.
Entry note: the call must match one of active, inactive

Please share the test call associated with O=C(COC(=O)c1ccccc1)Nc1ccc(Cl)cc1C(=O)c1ccccc1 .
active

----------
Here, each record is paired with measured inhibition data.
tested_target: Neuropeptide Y receptor type 2 (Homo sapiens) (UniProt P49146)
measurement_protocol: blockers of human neuropeptide Y Y2 receptor – cell-based, primary screen (AID 793);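 further: 0% = vehicle with agonist challenge and 100% = reference antagonist with challenge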
test_parameters: NPY-Y2 expressing cells, antagonist mode; at 2.7 µM; hits give high values
Among all 140,000 compounds or so, about 1,400 (1%) were called active. This is one part of a sample in which actives are shown more often than they occur.
# number only, unit % dropped from output

Solved cases (2 shown):
given_smiles | inhibition / %
CN1CCN(C(=S)SCC(=O)Nc2ccc(Cl)cc2C(=O)c2ccccc2)CC1 | 6.46
CN1CCN(Cc2ccc(OC(F)(F)F)cc2)CC1 | 3.95

Consider the additional compound presented here.
Find inhibition (Neuropeptide Y receptor type 2 (Homo sapiens) (UniProt P49146)) for the entry CCOC(=O)c1c(-c2ccccc2)oc2ccc(OC(=O)N(C)C)cc12
4.26
